The reader will find reported AC40 values listed item by item below.
- System: mESC Bmi1-luciferase reporter, firefly/renilla ratio, 24 h
- assay_procedure: compounds raising Bmi1 reporter signal – mouse embryonic stem cells, luciferase, cherry-pick, esBAF inhibitor project, dose response (AID 651717);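 further: luciferase knocked into Bmi1 locus with EF-1a renilla as cell number control; rising ratio signals esBAF inhibition which derepresses Bmi1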
reported_metric: AC40

[[record]]
structure_notation = "CN(Cc1nccn1C)C(=O)c1ccc2nc(Cc3ccccc3F)oc2c1"
value_reported = "5.37 µM"

[[record]]
structure_notation = "COc1ccccc1CNC(=O)C[C@@H]1CC[C@@H]2[C@H](COC[C@H](O)CN2C(=O)Nc2ccc(Cl)cc2)O1"
value_reported = "1.36 µM"

[[record]]
structure_notation = "COc1ccccc1NC(=O)Cn1nnc(-c2ccccc2NC(=O)c2cc3ccccc3oc2=O)n1"
value_reported = "4.5 µM"

[[record]]
structure_notation = "CCc1sc(C(=O)N2CCN(CC(=O)Nc3cccc(F)c3)CC2)cc1C"
value_reported = "3.04 µM"

[[record]]
structure_notation = "C#CCn1cccc(C(=O)Nc2ccc(OC)cc2)c1=O"
value_reported = "10.7 µM"

[[record]]
structure_notation = "Cc1ccc(N=Nc2cc(C)ccc2O)c(C)c1"
value_reported = "3.74 µM"

[[record]]
structure_notation = "O=C(NC1CCCCCCC1)c1c(O)c2ccccc2[nH]c1=O"
value_reported = "2.19 µM"

[[record]]
structure_notation = "CCc1cc(CNC(=O)c2cc(COc3ccc(C)nc3)on2)on1"
value_reported = "6.87 µM"

[[record]]
structure_notation = "Cc1ccc(Nc2ncnc3sc(C)c(C)c23)cc1"
value_reported = "3.76 µM"

[[record]]
structure_notation = "O=C(c1ccc(Cl)cc1)c1cnc(Nc2ccccc2)s1"
value_reported = "1.46 µM"

[[record]]
structure_notation = "O=C(CC1CCCC1)Nc1ccc(Br)cc1"
value_reported = "16 µM"

